The reported numbers originate from PubChem BioAssay (NCI).

# protocolNotes: NCI Yeast Anticancer Drug Screen. Data for the cln2 rad14 strain (AID 165);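 also: 0% = growth equal to vehicle treated cultures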
# conditionNotes: S. cerevisiae cln2 rad14 strain, at 50.0 µM (retest, dose inferred, filed as 5.0), stronger effect = higher value
About 79,000 compounds went through this panel and 15% of them were active in at least one assay; those are over-represented in the sample as a whole. Calls of active or inactive are those of the source. Rule as the data show it: active = growth inhibition above about 70%; inactive = the rest.
growth inhibition values by entry

# compound, growth inhibition
rows = [
    ("CCCCCCCCCCCCCCCCCC[S+](C)CC (stereo not drawn)", "98% (active)"),
    ("CCCc1cc(=O)oc2c3c(c4c(c12)OC(C)(C)CC4)OC(C)[C@H](C)[C@@H]3O (stereo partly drawn)", "93% (active)"),
    ("CC(O)C(O)C(O)C(O)C(O)C(=O)NNc1ccccc1 (stereo not drawn)", "71% (active)"),
    ("C=CCCCCCCCCC(=O)NN", "81% (active)"),
    ("CC1=C(/C=C/C(C)=C/C(=O)O)C(C)(C)CCC1", "43% (inactive)"),
    ("CCCCCCCCCCCC1=NCCCN1CCCC", "99% (active)"),
    ("Cc1onc(-c2ccccc2)c1C(=O)N/N=C/c1cc(Cl)cc(Cl)c1O", "96% (active)"),
    ("CCCCCCN(CCCCCC)CCCCCCCCCCCO", "98% (active)"),
]
